Reported log10 half-life values follow for various compounds
Assay: Stability experiment of compounds in human liver microsomes
Type: in vitro ADME
Conditions: NADPH, 37° C., read-out: T1/2 in human liver microsomes
PROPERTY: log10 half-life (log10 of the value in min)

> print(dat)
                                    compound         property  endpoint.value
 1  C/C(=C\CC(F)(F)P(=O)(N[C@@H](C)C(=O)O[C@@H]1CCOC1)Oc1ccccc1)CO (some centres unmarked)  log10 half-life            0.91
 2  C/C(=C\CCP(=O)(N[C@@H](C)C(=O)OC1CCN(CC(F)(F)F)CC1)Oc1ccccc1)CO (some centres unmarked)  log10 half-life            0.59
 3  C[C@H](NP(=O)(CC/C=C(/CO)C(F)(F)F)Oc1ccccc1)C(=O)O[C@@H]1CCOC1 (some centres unmarked)  log10 half-life            1.02
 4  C/C(=C\CCP(=O)(N[C@@H](C)C(=O)O[C@H]1CO[C@H]2OCC[C@H]21)Oc1ccccc1)CO (some centres unmarked)  log10 half-life            1.06
 5  C/C(=C\CCP(=O)(N[C@@H](C)C(=O)OCc1ccccc1)Oc1ccccc1)CO (some centres unmarked) [Control compound 2, reference compound]  log10 half-life            0.15
 6  C/C(=C\CCP(=O)(N[C@@H](C)C(=O)OC1CC2(COC2)C1)Oc1ccccc1)CO (some centres unmarked)  log10 half-life            1.39
 7  C/C(=C\CCP(=O)(N[C@@H](C)C(=O)OC1(C#N)CCCC1)Oc1ccccc1)CO (some centres unmarked)  log10 half-life            0.49
 8  C/C(=C\CC[P@@](=O)(N[C@@H](C)C(=O)O[C@@H]1CCOC1)Oc1ccccc1)CO (single isomer, unassigned)  log10 half-life            1.32
 9  C/C(=C\CCP(=O)(N[C@@H](C)C(=O)O[C@@H]1CCOC1)Oc1ccccc1)CO (some centres unmarked)  log10 half-life            1.33
10  C/C(=C\CCP(=O)(N[C@@H](C)C(=O)O[C@@H]1CCNC(=O)C1)Oc1ccccc1)CO (some centres unmarked)  log10 half-life            1.92
11  C/C(=C\CCP(=O)(N[C@@H](C)C(=O)O[C@@H]1CCO[C@H](C)C1)Oc1ccccc1)CO (some centres unmarked)  log10 half-life            1.30
12  C/C(=C\CCP(=O)(N[C@@H](C)C(=O)OC(C)C)Oc1ccccc1)CO (some centres unmarked) [Control compound 1, reference compound]  log10 half-life            0.94
13  C/C(=C\CCP(=O)(N[C@@H](C)C(=O)O[C@H]1CCOC1)Oc1ccccc1)CO (some centres unmarked)  log10 half-life            1.44
14  C/C(=C\CCP(=O)(N[C@@H](C)C(=O)OC1CCOCC1)Oc1ccccc1)CO (some centres unmarked)  log10 half-life            1.38

###

Assay: Binding rate test of compounds and human plasma protein (equilibrium dialysis)
Assay type: in vitro ADME
Conditions: human plasma, equilibrium dialysis 6 hours, 37° C.
PROPERTY: fraction unbound at 6 h, 1 μM

> print(dat)
                                   compound  endpoint.value
1  C/C(=C\CCP(=O)(N[C@@H](C)C(=O)O[C@H]1CCOC1)Oc1ccccc1)CO (stereo partly drawn)           0.168
2  C/C(=C\CCP(=O)(N[C@@H](C)C(=O)OC(C)C)Oc1ccccc1)CO (stereo partly drawn) [Control compound 1, reference compound]           0.073
3  C/C(=C\CCP(=O)(N[C@@H](C)C(=O)OC1CCOCC1)Oc1ccccc1)CO (stereo partly drawn)           0.227
4  C/C(=C\CCP(=O)(N[C@@H](C)C(=O)O[C@@H]1CCO[C@H](C)C1)Oc1ccccc1)CO (stereo partly drawn)           0.192
5  C/C(=C\CCP(=O)(N[C@@H](C)C(=O)O[C@H]1CO[C@H]2OCC[C@H]21)Oc1ccccc1)CO (stereo partly drawn)           0.214
6  C/C(=C\CC[P@@](=O)(N[C@@H](C)C(=O)O[C@@H]1CCOC1)Oc1ccccc1)CO (single isomer, unassigned)           0.178
